- ASSAYED SYSTEM: native human alpha-thrombin (Homo sapiens) (UniProt P00734+P00734)
- TEST DESCRIPTION: ITC
- CONDITION SET: all L-DNA (mirror image); ITC: 20 mM HEPES-NaOH, 150 mM NaCl, 5 mM KCl, 2 mM MgCl2, 1 mM CaCl2, pH 7.4, 25 C; EMSA: same plus 0.05% Tween 20 and 10% glycerol, room temperature 30 min …
// classify: if (Kd < 100 nM) met else not met

Q: For this sequence, is Kd lower than 100 nM? ACGGAACGCGTTTCAAGACTACCGTGTTTGTTCCGT [L-9-1t aptamer]
Result: met

* * *

- ASSAYED SYSTEM: native human alpha-thrombin (Homo sapiens) (UniProt P00734+P00734)
- TEST DESCRIPTION: thrombin activity inhibition
- CONDITION SET: all L-DNA (mirror image); ITC: 20 mM HEPES-NaOH, 150 mM NaCl, 5 mM KCl, 2 mM MgCl2, 1 mM CaCl2, pH 7.4, 25 C; EMSA: same plus 0.05% Tween 20 and 10% glycerol, room temperature 30 min …
Would you mind telling me the reported IC50 of each entry?
Numbers only, in nM.

• CGGATCCAGTTACGGATGAACTTGTTGAAACCCAACGGGAGCCTCGTTCATTCAGTAAGCTTCGGTGG [L-13 aptamer] = 27
• CGGATCCAGTTACGGATGAACTTGTTGAAACCCAACGGGAGAATCGTTCATTCAGTAAGCTTCGG [L-9-2 aptamer] = 317
• GATGAACTTGTTGAAACCCAACGGGAGCCTCGTTCATT [L-13t aptamer] = 46

Q: Requested field: IC50. Item: GATGAACTTGTTGAAACCCAACGGGAGAATCGTTCATT [L-9-2t aptamer]
Result: 479

* * *

Assignment: determine reported pKd for the given sequences.
- ASSAYED SYSTEM: native human alpha-thrombin (Homo sapiens) (UniProt P00734+P00734)
- TEST DESCRIPTION: ITC
- CONDITION SET: all L-DNA (mirror image); ITC: 20 mM HEPES-NaOH, 150 mM NaCl, 5 mM KCl, 2 mM MgCl2, 1 mM CaCl2, pH 7.4, 25 C; EMSA: same plus 0.05% Tween 20 and 10% glycerol, room temperature 30 min …
Answers are plain numbers, as −log10 of the molar value.

Use these answered entries as a reference point.
* GATGAACTTGTTGAAACCCAACGGGAGCCTCGTTCATT [L-13t aptamer] | 7.47
* GGAACGCGTTTCAAGACTACCGTGTTTGTTCC [L-9-1t' aptamer] | 6.95
* CGGATCCAGTTACGGATGAACTTGTTGAAACCCAACGGGAGAATCGTTCATTCAGTAAGCTTCGG [L-9-2 aptamer] | 6.77
* CGGATCCAGTTACGGAACGCGTTTCAAGACTACCGTGTTTGTTCCGTTCATTCAGTAAGCTTCGG [L-9-1 aptamer] | 7.54

Parameters: items (list). Returns: pKd for each item.
1. CGGATCCAGTTACGGATGAACTTGTTGAAACCCAACGGGAGCCTCGTTCATTCAGTAAGCTTCGGTGG [L-13 aptamer]
2. GATGAACTTGTTGAAACCCAACGGGAGAATCGTTCATT [L-9-2t aptamer]

Result:
1. 7.66
2. 6.60
